# procedure-summary: Metabolic stability in human liver microsomes assessed as compound remaining over 60 mins in absence of NADPH
# Type: ADME, Microsome
# details: read-out: Stability
Reported remaining at 1 h values follow for various compounds
measurement-label: remaining at 1 h (%)

substance-smiles	reading
N#Cc1c(-c2ccc(Br)cc2)no[n+]1[O-]	67
N#Cc1c(-c2csc(-c3no[n+]([O-])c3C#N)c2)no[n+]1[O-]	52
N#Cc1c(-c2cc(F)cc(-c3no[n+]([O-])c3C#N)c2)no[n+]1[O-]	51
N#Cc1c(-c2cccs2)no[n+]1[O-]	64

###

# experimental-target: hERG (KCNH2) (Homo sapiens, UniProt Q12809)
# Sequence (Q12809 whole entry): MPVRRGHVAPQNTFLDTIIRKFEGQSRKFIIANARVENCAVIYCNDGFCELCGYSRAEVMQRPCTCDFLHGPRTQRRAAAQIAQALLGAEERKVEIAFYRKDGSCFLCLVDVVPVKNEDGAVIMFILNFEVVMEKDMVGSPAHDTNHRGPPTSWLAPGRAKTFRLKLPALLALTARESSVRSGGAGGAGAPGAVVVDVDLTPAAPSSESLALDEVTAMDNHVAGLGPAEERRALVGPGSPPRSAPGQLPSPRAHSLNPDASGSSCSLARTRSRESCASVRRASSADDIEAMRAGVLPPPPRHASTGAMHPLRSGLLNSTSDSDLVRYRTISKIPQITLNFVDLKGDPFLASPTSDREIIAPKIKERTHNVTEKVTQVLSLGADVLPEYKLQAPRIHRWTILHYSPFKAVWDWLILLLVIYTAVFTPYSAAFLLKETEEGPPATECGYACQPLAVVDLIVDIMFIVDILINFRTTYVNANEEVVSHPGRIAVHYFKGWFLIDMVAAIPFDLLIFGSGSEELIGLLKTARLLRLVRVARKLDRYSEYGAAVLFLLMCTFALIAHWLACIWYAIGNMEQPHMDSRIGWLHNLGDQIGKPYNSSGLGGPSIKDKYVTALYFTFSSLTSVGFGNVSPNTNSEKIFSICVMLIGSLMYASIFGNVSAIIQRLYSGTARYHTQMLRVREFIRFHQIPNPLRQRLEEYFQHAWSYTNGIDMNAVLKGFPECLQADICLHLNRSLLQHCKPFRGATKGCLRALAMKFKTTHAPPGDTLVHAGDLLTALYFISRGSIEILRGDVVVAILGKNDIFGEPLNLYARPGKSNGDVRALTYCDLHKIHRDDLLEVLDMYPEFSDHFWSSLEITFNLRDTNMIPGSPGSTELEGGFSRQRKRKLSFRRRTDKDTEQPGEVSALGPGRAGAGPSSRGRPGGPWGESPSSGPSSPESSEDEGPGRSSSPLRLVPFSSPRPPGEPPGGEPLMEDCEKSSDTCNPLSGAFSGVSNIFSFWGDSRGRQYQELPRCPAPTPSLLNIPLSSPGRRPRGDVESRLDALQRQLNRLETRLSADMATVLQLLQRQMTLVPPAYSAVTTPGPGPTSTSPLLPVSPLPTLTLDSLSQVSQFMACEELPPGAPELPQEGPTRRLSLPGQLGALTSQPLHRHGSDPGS
# procedure-summary: Inhibition of human ERG expressed in HEK293 cells at 10 uM by fast patch clamp method
# details: HEK293 cells expressing human ERG
Reported inhibition at 10 µM values follow for various molecules

substance-smiles	inhibition at 10 µM
N#Cc1c(-c2ccc(Br)cc2)no[n+]1[O-]	5.5%
N#Cc1c(-c2cccc(-c3no[n+]([O-])c3C#N)c2)no[n+]1[O-]	7.8%
N#Cc1c(-c2cc(F)cc(-c3no[n+]([O-])c3C#N)c2)no[n+]1[O-]	29.4%
N#Cc1c(-c2cccs2)no[n+]1[O-]	3.4%
